- System: P30-OHKUBO
- PROCEDURE SUMMARY: selective drug sensitivity score (sDSS, relative to normal bone marrow) (sDSS (score)); higher = more potent and effective on the cell line relative to normal bone marrow cells;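 also: ALL cell lines in 384-well plates, five doses spanning 10,000-fold, each plate scaled between vehicle and 100 µmol/L benzalkonium chloride controls, sDSS an adapted area-under-curve metric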
- DETAILS: 72 h
Known selective drug sensitivity score of a selection of molecules

CC[C@@]1(O)C(=O)OCc2c1cc1n(c2=O)Cc2cc3c(CN(C)C)c(O)ccc3nc2-1 [Topotecan] (top concentration 10000 nM)	18.9

Would you kindly share the measured selective drug sensitivity score for CCCCCCCCc1ccc(CCC(N)(CO)CO)cc1 [Fingolimod] (top concentration 10000 nM) ?
1.38

GET /values?readout=selective drug sensitivity score&item= COC(=O)N[C@@H](C)CNc1nccc(-c2cn(C(C)C)nc2-c2cc(Cl)cc(NS(C)(=O)=O)c2F)n1 [Encorafenib] (top concentration 1000 nM)
1.3

Could you tell me which selective drug sensitivity score is on file for Nc1nc(Nc2ccc3c(c2)CC[C@@H](N2CCCC2)CC3)nn1-c1cc2c(nn1)-c1ccccc1CCC2 [BGB324] (top concentration 10000 nM) ?
5.82

====

- Test system: COG-LL-317
- PROCEDURE SUMMARY: selective drug sensitivity score (sDSS, relative to normal bone marrow) (sDSS (score)); higher = more potent and effective on the cell line relative to normal bone marrow cells
- DETAILS: 72 h
OBSERVED PROPERTY: selective drug sensitivity score

Guide cases for selective drug sensitivity score, answers given:
O=C(Nc1cc(Cl)cc2c1[nH]c1cnccc12)c1cccnc1 [PS-1145] (top concentration 25000 nM)	-0.46
CCc1c(C(=O)C(N)=O)c2c(OCC(=O)O)cccc2n1Cc1ccccc1 [Varespladib] (top concentration 10000 nM)	-0.74

Look at this molecule and give its reported selective drug sensitivity score. C[C@@H](Nc1cc(F)cc(F)c1)c1cc(C(=O)N(C)C)cc2c(=O)cc(N3CCOCC3)oc12 [AZD-8186] (top concentration 1000 nM)
-0.26

May I ask what selective drug sensitivity score has been recorded for Cn1cc(-c2[nH]c3cc(NC(=O)[C@H](N)C4CCCCC4)cc4c3c2C=NNC4=O)cn1 (top concentration 10000 nM) ?
6.08

====

- Tested on: COG-LL-317
- PROCEDURE SUMMARY: selective drug sensitivity score (sDSS, relative to normal bone marrow) (sDSS (score)); higher = more potent and effective on the cell line relative to normal bone marrow cells
- DETAILS: 72 h
The threshold is inclusive: selective drug sensitivity score of exactly 1 counts as Fulfilled; values below receive Not fulfilled.

CCS(=O)(=O)Nc1ccc(Oc2ccc(F)cc2F)c(-c2cn(C)c(=O)c3[nH]ccc23)c1 [Mivebresib] (top concentration 10000 nM)	Fulfilled
Nc1nc(Nc2ccc3c(c2)CC[C@@H](N2CCCC2)CC3)nn1-c1cc2c(nn1)-c1ccccc1CCC2 [BGB324] (top concentration 10000 nM)	Not fulfilled
Cc1ccc(NS(=O)(=O)c2cccc(C#N)c2)c2[nH]cc(C#N)c12 [E7820] (top concentration 50000 nM)	Fulfilled
O=C(CCCCCCNC(=O)c1cnc(N(c2ccccc2)c2ccccc2)nc1)NO [Rocilinostat] (top concentration 10000 nM)	Fulfilled
CC[C@@H]1CN(C(=O)NCC(F)(F)F)C[C@@H]1c1cnc2cnc3[nH]ccc3n12 [Upadacitinib] (top concentration 10000 nM)	Not fulfilled

In plain terms: is recorded selective drug sensitivity score at least 1 for C[C@@]1(C(=O)Nc2ccc(F)nc2)CCCN1c1nc(Nc2cc(C3CC3)n[nH]2)c2cccn2n1 (top concentration 10000 nM) ?
Fulfilled

Say whether Cc1nc(=O)c2cc(CN(C)c3ccc(C(=O)N[C@@H](CCC(=O)O)C(=O)O)s3)ccc2[nH]1 [Raltitrexed] (top concentration 1000 nM) shows selective drug sensitivity score of 1 or more.
Fulfilled

Check if selective drug sensitivity score >= 1 (inclusive). Item: Cc1ccc(-c2cc(C(F)(F)F)nn2-c2ccc(S(N)(=O)=O)cc2)cc1 [Celecoxib] (top concentration 10000 nM)
Not fulfilled

State whether the measured selective drug sensitivity score reaches 1, counting equality as reaching it, for Cn1cnc2c(F)c(Nc3ccc(Br)cc3Cl)c(C(=O)NOCCO)cc21 [Selumetinib] (top concentration 10000 nM)
Not fulfilled

Hi, just wondering whether Nc1ccccc1NC(=O)c1ccc(CNC(=O)OCc2cccnc2)cc1 [Entinostat] (top concentration 10000 nM) shows selective drug sensitivity score of 1 or higher.
Fulfilled

Please tell me: is the compound CNC(=O)c1cccc(-c2ccc3c(N4CCOC[C@@H]4C)nc(N4CCOC[C@@H]4C)nc3n2)c1 [Vistusertib] (top concentration 10000 nM) at or over 1 in terms of selective drug sensitivity score?
Fulfilled

Quick check: does CC[C@@]1(O)C(=O)OCc2c1cc1n(c2=O)Cc2cc3c(CN(C)C)c(O)ccc3nc2-1 [Topotecan] (top concentration 10000 nM) have selective drug sensitivity score greater than or equal to 1?
Fulfilled

Please tell me: is the compound C=CC(=O)N1CC/C(=C\c2ccc(F)c([N+](=O)[O-])c2)C(=O)/C(=C/c2ccc(F)c([N+](=O)[O-])c2)C1 [VLX1570] (top concentration 10000 nM) at or over 1 in terms of selective drug sensitivity score?
Fulfilled

====

Readings of selective drug sensitivity score for the listed compounds
- Test system: REH
- PROCEDURE SUMMARY: selective drug sensitivity score (sDSS, relative to normal bone marrow) (sDSS (score)); higher = more potent and effective on the cell line relative to normal bone marrow cells
- DETAILS: 72 h
Please give the numeric answer without any surrounding text.

Field: example entries. Status: answers known.
NC1(c2ccc(-c3nc4ccn5c(=O)[nH]nc5c4cc3-c3ccccc3)cc2)CCC1 [MK-2206] (top concentration 1000 nM)	6.26
CCN(c1cc(-c2ccc(CN3CCOCC3)cc2)cc(C(=O)NCc2c(C)cc(C)[nH]c2=O)c1C)C1CCOCC1 [Tazemetostat] (top concentration 10000 nM)	-0.08
CC(C)Oc1ccc(-c2nn([C@@H](C)c3oc4ccc(F)cc4c(=O)c3-c3cccc(F)c3)c3ncnc(N)c23)cc1F [TGR-1202] (top concentration 2500 nM)	-1.76
CC1(C)C(C(=O)Nc2ccc(S(=O)(=O)c3ccc(NC(=O)C4C(C)(C)C4(C)C)cc3)cc2)C1(C)C [BRD7116] (top concentration 10000 nM)	2.86

Would you kindly share the measured selective drug sensitivity score for CCC1=C[C@@H]2CN(C1)Cc1c([nH]c3ccccc13)[C@@](C(=O)OC)(c1cc3c(cc1OC)N(C)[C@H]1[C@@](O)(C(=O)OC)[C@H](OC(C)=O)[C@]4(CC)C=CCN5CC[C@]31[C@@H]54)C2 [Vinorelbine] (top concentration 10000 nM) ?
26.6

====

selective drug sensitivity score reference
- System: MOLT-4
- PROCEDURE SUMMARY: selective drug sensitivity score (sDSS, relative to normal bone marrow) (sDSS (score)); higher = more potent and effective on the cell line relative to normal bone marrow cells
- DETAILS: 72 h

Examples with answers:
CCOc1ccn(-c2ccc(F)cc2)c(=O)c1C(=O)Nc1ccc(Oc2ccnc(N)c2Cl)c(F)c1 (top concentration 2500 nM)	0.1
COc1cc2ncnc(Nc3ccc(F)c(Cl)c3)c2cc1OCCCN1CCOCC1 [Gefitinib] (top concentration 10000 nM)	-0.34
CNC(=O)c1ccc(C)c(-n2c(C)cc(OCc3ccc(F)cc3F)c(Br)c2=O)c1 (top concentration 1000 nM)	0
CN[C@@H](C)C(=O)N[C@H](C(=O)N1CCC[C@H]1c1nc(C(=O)c2ccc(F)cc2)cs1)C1CCCCC1 [NVP-LCL161] (top concentration 25000 nM)	-4.32

Lab note: need selective drug sensitivity score for CN1CCN(C2CCC(n3cc(-c4ccc(Oc5ccccc5)cc4)c4c(N)ncnc43)CC2)CC1 (stereo unspecified) (top concentration 10000 nM) on MOLT-4, anyone have it?
0.82

Enter reported selective drug sensitivity score observed with MOLT-4 for Cn1cc(-c2[nH]c3cc(NC(=O)[C@H](N)C4CCCCC4)cc4c3c2C=NNC4=O)cn1 (top concentration 10000 nM)
3.38

====

- Tested on: JURKAT
- PROCEDURE SUMMARY: selective drug sensitivity score (sDSS, relative to normal bone marrow) (sDSS (score)); higher = more potent and effective on the cell line relative to normal bone marrow cells
- DETAILS: 72 h
Here the recorded selective drug sensitivity score is given for each entry.

Past entries and their recorded results:
COC12C(COC(N)=O)C3=C(C(=O)C(C)=C(N)C3=O)N1CC1NC12 (stereo in doubt) [Mitomycin_C] (top concentration 10000 nM)	-2.86
CC1(C)CCC(c2ccc(Cl)cc2)=C(CN2CCN(c3ccc(C(=O)NS(=O)(=O)c4ccc(N[C@H](CCN5CCOCC5)CSc5ccccc5)c(S(=O)(=O)C(F)(F)F)c4)cc3)CC2)C1 [Navitoclax] (top concentration 10000 nM)	9.02

Using the record for CN(C)C1CCN(C(=O)c2ccc(NC(=O)Nc3ccc(-c4nc(N5CCOCC5)nc(N5CCOCC5)n4)cc3)cc2)CC1 [Gedatolisib] (top concentration 1000 nM) , report its selective drug sensitivity score.
2.66

Using the record for Nc1cc(C(F)(F)F)c(-c2cc(N3CCOCC3)nc(N3CCOCC3)n2)cn1 [Buparlisib] (top concentration 10000 nM) , report its selective drug sensitivity score.
8.18

Item CCS(=O)(=O)N1CCN(c2ccc(Nc3ncc(C(N)=O)c(NC4CC4)n3)cc2)CC1 [Cerdulatinib] (top concentration 10000 nM) has what recorded selective drug sensitivity score?
-8.66
